Tested target: Env of HIV-1 strain 3415.v1.c1 (HIV-1)
Measurement notes: cell-based or functional assay
Reported values of neutralization IC50 for individual entries

Binder: γ52κ11 (antibody, V domains shown) VH: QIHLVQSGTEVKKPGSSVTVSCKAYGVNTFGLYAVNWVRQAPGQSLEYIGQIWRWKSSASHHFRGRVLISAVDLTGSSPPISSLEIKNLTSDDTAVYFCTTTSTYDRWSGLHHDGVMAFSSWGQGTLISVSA VL: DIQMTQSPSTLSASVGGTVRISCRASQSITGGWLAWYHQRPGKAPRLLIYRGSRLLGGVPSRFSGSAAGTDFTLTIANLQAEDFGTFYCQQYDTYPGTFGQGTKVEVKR
neutralization IC50: > 15 µg/mL

Consider the binder shown here: γ22κ11 (antibody, V domains shown) VH: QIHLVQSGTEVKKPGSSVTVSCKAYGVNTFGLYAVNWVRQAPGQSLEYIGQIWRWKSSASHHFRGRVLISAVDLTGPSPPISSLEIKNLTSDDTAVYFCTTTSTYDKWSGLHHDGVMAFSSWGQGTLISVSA VL: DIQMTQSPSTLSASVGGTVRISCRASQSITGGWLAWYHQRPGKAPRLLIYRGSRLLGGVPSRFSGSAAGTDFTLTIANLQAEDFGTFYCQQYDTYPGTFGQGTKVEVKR What is its recorded neutralization IC50?
> 15 µg/mL

Consider the binder shown here: γ3κ5 (antibody, V domains shown) VH: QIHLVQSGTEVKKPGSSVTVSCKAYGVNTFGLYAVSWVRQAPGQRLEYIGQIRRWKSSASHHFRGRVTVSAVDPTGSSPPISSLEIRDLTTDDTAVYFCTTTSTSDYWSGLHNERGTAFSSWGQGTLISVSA VL: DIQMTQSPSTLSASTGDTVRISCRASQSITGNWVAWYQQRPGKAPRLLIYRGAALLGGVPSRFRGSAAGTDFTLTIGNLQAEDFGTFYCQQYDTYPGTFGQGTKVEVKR What is its recorded neutralization IC50?
> 15 µg/mL
